Data origin, for the record: patent US20210253718A1

Biological target: T1, FZD9 cysteine-rich domain (CRD), MYC-tagged and GPI-anchored on CHO cells (human, UniProt O00144 35-161, GPI anchor)
T1 construct: also called FZD9 CRD; CHO-myc-FZDGPI; not shown: MYC tag and GPI anchor signal
T1 sequence: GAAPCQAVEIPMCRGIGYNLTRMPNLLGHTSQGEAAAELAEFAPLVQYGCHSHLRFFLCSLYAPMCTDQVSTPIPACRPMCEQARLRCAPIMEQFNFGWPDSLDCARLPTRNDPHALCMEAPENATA
Experiment: flow cytometry, CHO-CRD cells;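 also: flow cytometry of Fab binding to CHO cells overexpressing a Frizzled CRD, with binding defined as median fluorescence over twice that of CHO cells lacking any Frizzled CRD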
What median fluorescence was measured for each of the following?

In: Please look up its median fluorescence: Fab-2902 (Fab, V domains shown, Fab; also called Fv-2902) VH: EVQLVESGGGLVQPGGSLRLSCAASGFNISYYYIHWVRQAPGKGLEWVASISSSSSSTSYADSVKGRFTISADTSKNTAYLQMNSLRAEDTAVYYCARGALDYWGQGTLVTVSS VL: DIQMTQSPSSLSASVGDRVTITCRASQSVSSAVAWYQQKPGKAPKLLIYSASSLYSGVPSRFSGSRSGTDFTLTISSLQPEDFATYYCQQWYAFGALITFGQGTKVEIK
Out: 3.96

In: Now this one: Fab-2930 (Fab, V domains shown, Fab; also called Fv-2930) VH: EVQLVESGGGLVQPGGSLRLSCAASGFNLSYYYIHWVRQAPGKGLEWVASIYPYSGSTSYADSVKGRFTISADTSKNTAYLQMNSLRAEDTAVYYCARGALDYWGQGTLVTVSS VL: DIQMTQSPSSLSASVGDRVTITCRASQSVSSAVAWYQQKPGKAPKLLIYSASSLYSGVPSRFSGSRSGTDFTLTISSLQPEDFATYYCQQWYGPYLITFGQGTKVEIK
Out: 4.87

In: Now this one: Fab-2913 (Fab, V domains shown, Fab; also called Fv-2913) VH: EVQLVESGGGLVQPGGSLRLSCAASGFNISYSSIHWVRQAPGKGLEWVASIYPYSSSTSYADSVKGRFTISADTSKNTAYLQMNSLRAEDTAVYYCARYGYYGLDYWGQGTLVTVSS VL: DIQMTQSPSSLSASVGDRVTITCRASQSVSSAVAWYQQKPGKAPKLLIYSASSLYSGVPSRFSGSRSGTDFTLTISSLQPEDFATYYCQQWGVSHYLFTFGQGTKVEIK
Out: 3.79
